assay: Particle size distribution, dry dispersion laser diffraction (Sympatec); type: physicochemical
Measured Property: D99 (µm)

{"columns": ["Compound", "Numeric Value"],
 "data": [
  ["CC[C@H]1[C@@H](O)[C@@H]2[C@H](CC[C@]3(C)[C@@H]([C@H](C)CCC(=O)O)CC[C@@H]23)[C@@]2(C)CC[C@@H](O)C[C@@H]12 [Jet mill, classifier speed 10000 rpm]", 9],
  ["CC[C@H]1[C@@H](O)[C@@H]2[C@H](CC[C@]3(C)[C@@H]([C@H](C)CCC(=O)O)CC[C@@H]23)[C@@]2(C)CC[C@@H](O)C[C@@H]12 [Jet mill, classifier speed 4000 rpm]", 36],
  ["CC[C@H]1[C@@H](O)[C@@H]2[C@H](CC[C@]3(C)[C@@H]([C@H](C)CCC(=O)O)CC[C@@H]23)[C@@]2(C)CC[C@@H](O)C[C@@H]12 [Jet mill, classifier speed 2000 rpm]", 97.9],
  ["CC[C@H]1[C@@H](O)[C@@H]2[C@H](CC[C@]3(C)[C@@H]([C@H](C)CCC(=O)O)CC[C@@H]23)[C@@]2(C)CC[C@@H](O)C[C@@H]12 [Jet mill, classifier speed 5000 rpm]", 55.8]
]}

====

test: Plasma protein binding; type: in vitro ADME; conditions: human
Measured Property: fraction unbound

{"columns": ["Chemical Structure", "Result"],
 "data": [
  ["CC[C@H]1[C@@H](O)[C@@H]2[C@H](CC[C@]3(C)[C@@H]([C@H](C)CCC(=O)O)CC[C@@H]23)[C@@]2(C)CC[C@@H](O)C[C@@H]12", "< 0.01"]
]}

====

test: Particle size distribution, dry dispersion laser diffraction (Sympatec); assay type: physicochemical; settings: spiral jet mill, JetPharma

{"columns": ["Molecule", "PSD X50"],
 "data": [
  ["CC[C@H]1[C@@H](O)[C@@H]2[C@H](CC[C@]3(C)[C@@H]([C@H](C)CCC(=O)O)CC[C@@H]23)[C@@]2(C)CC[C@@H](O)C[C@@H]12 [JP1408001]", "X50: 5 μm"],
  ["CC[C@H]1[C@@H](O)[C@@H]2[C@H](CC[C@]3(C)[C@@H]([C@H](C)CCC(=O)O)CC[C@@H]23)[C@@]2(C)CC[C@@H](O)C[C@@H]12 [JP1408003]", "X50: 4 μm"],
  ["CC[C@H]1[C@@H](O)[C@@H]2[C@H](CC[C@]3(C)[C@@H]([C@H](C)CCC(=O)O)CC[C@@H]23)[C@@]2(C)CC[C@@H](O)C[C@@H]12 [JP1408002]", "X50: 4 μm"],
  ["CC[C@H]1[C@@H](O)[C@@H]2[C@H](CC[C@]3(C)[C@@H]([C@H](C)CCC(=O)O)CC[C@@H]23)[C@@]2(C)CC[C@@H](O)C[C@@H]12 [JP1307001]", "X50: 5 μm"]
]}

====

experiment: Equilibrium solubility of OCA in various buffers at 37° C.; format: physicochemical; settings: aqueous buffer, 37 °C, pH 4.1, aqueous buffer, thermodynamic from solid, pH 4.1 Acetate
Measured Property: solubility (µg/mL)

{"columns": ["Chemical Structure", "Numeric Value"],
 "data": [
  ["CC[C@H]1[C@@H](O)[C@@H]2[C@H](CC[C@]3(C)[C@@H]([C@H](C)CCC(=O)O)CC[C@@H]23)[C@@]2(C)CC[C@@H](O)C[C@@H]12", 3]
]}

====

experiment: Particle size distribution, dry dispersion laser diffraction (Sympatec); assay type: physicochemical; conditions: Before jet-milling (unmicronized)
Measured Property: Dv (99)

{"columns": ["Compound", "Measured Property", "Result"],
 "data": [
  ["CC[C@H]1[C@@H](O)[C@@H]2[C@H](CC[C@]3(C)[C@@H]([C@H](C)CCC(=O)O)CC[C@@H]23)[C@@]2(C)CC[C@@H](O)C[C@@H]12 [OCA Example # 2]", "Dv (99)", "509 µm"],
  ["CC[C@H]1[C@@H](O)[C@@H]2[C@H](CC[C@]3(C)[C@@H]([C@H](C)CCC(=O)O)CC[C@@H]23)[C@@]2(C)CC[C@@H](O)C[C@@H]12 [OCA Example # 3]", "Dv (99)", "513 µm"],
  ["CC[C@H]1[C@@H](O)[C@@H]2[C@H](CC[C@]3(C)[C@@H]([C@H](C)CCC(=O)O)CC[C@@H]23)[C@@]2(C)CC[C@@H](O)C[C@@H]12 [OCA Example # 1]", "Dv (99)", "419 µm"]
]}

====

experiment: Solubility of OCA in biologically relevant media at 37° C.; type: physicochemical; settings: physiologically relevant dissolution media; pH 5.0 (FeSSIF), 37° C.

{"columns": ["Chemical Structure", "Unit Spec", "solubility"],
 "data": [
  ["CC[C@H]1[C@@H](O)[C@@H]2[C@H](CC[C@]3(C)[C@@H]([C@H](C)CCC(=O)O)CC[C@@H]23)[C@@]2(C)CC[C@@H](O)C[C@@H]12", "µg/mL", 820]
]}

====

Consider the following compounds and their measured D10 readings.
assay: Particle size distribution, dry dispersion laser diffraction (Sympatec); type: physicochemical; details: in µm (unit assumed)

{"columns": ["Compound", "D10"],
 "data": [
  ["CC[C@H]1[C@@H](O)[C@@H]2[C@H](CC[C@]3(C)[C@@H]([C@H](C)CCC(=O)O)CC[C@@H]23)[C@@]2(C)CC[C@@H](O)C[C@@H]12 [Jet mill, classifier speed 2000 rpm]", 1.7],
  ["CC[C@H]1[C@@H](O)[C@@H]2[C@H](CC[C@]3(C)[C@@H]([C@H](C)CCC(=O)O)CC[C@@H]23)[C@@]2(C)CC[C@@H](O)C[C@@H]12 [Jet mill, classifier speed 4000 rpm]", 1.3],
  ["CC[C@H]1[C@@H](O)[C@@H]2[C@H](CC[C@]3(C)[C@@H]([C@H](C)CCC(=O)O)CC[C@@H]23)[C@@]2(C)CC[C@@H](O)C[C@@H]12 [Jet mill, classifier speed 10000 rpm]", 1.1],
  ["CC[C@H]1[C@@H](O)[C@@H]2[C@H](CC[C@]3(C)[C@@H]([C@H](C)CCC(=O)O)CC[C@@H]23)[C@@]2(C)CC[C@@H](O)C[C@@H]12 [Jet mill, classifier speed 5000 rpm]", 1.3],
  ["CC[C@H]1[C@@H](O)[C@@H]2[C@H](CC[C@]3(C)[C@@H]([C@H](C)CCC(=O)O)CC[C@@H]23)[C@@]2(C)CC[C@@H](O)C[C@@H]12 [Comilled with 1.14 mm screen]", 7.9],
  ["CC[C@H]1[C@@H](O)[C@@H]2[C@H](CC[C@]3(C)[C@@H]([C@H](C)CCC(=O)O)CC[C@@H]23)[C@@]2(C)CC[C@@H](O)C[C@@H]12 [Comilled with 0.46 mm screen]", 5.7]
]}

====

experiment: Particle size distribution, dry dispersion laser diffraction (Sympatec); assay type: physicochemical

{"columns": ["Compound", "D16 [µm]"],
 "data": [
  ["CC[C@H]1[C@@H](O)[C@@H]2[C@H](CC[C@]3(C)[C@@H]([C@H](C)CCC(=O)O)CC[C@@H]23)[C@@]2(C)CC[C@@H](O)C[C@@H]12 [Jet mill, classifier speed 2000 rpm]", 2.3],
  ["CC[C@H]1[C@@H](O)[C@@H]2[C@H](CC[C@]3(C)[C@@H]([C@H](C)CCC(=O)O)CC[C@@H]23)[C@@]2(C)CC[C@@H](O)C[C@@H]12 [Jet mill, classifier speed 5000 rpm]", 1.7],
  ["CC[C@H]1[C@@H](O)[C@@H]2[C@H](CC[C@]3(C)[C@@H]([C@H](C)CCC(=O)O)CC[C@@H]23)[C@@]2(C)CC[C@@H](O)C[C@@H]12 [Jet mill, classifier speed 10000 rpm]", 1.4],
  ["CC[C@H]1[C@@H](O)[C@@H]2[C@H](CC[C@]3(C)[C@@H]([C@H](C)CCC(=O)O)CC[C@@H]23)[C@@]2(C)CC[C@@H](O)C[C@@H]12 [Jet mill, classifier speed 4000 rpm]", 1.6]
]}

====

experiment: Particle size distribution, dry dispersion laser diffraction (Sympatec); assay type: physicochemical; conditions: in µm (unit assumed)
Measured Property: D90

{"columns": ["Molecule", "Measured Property", "Numeric Value"],
 "data": [
  ["CC[C@H]1[C@@H](O)[C@@H]2[C@H](CC[C@]3(C)[C@@H]([C@H](C)CCC(=O)O)CC[C@@H]23)[C@@]2(C)CC[C@@H](O)C[C@@H]12 [Jet mill, classifier speed 10000 rpm]", "D90", 5.6],
  ["CC[C@H]1[C@@H](O)[C@@H]2[C@H](CC[C@]3(C)[C@@H]([C@H](C)CCC(=O)O)CC[C@@H]23)[C@@]2(C)CC[C@@H](O)C[C@@H]12 [Jet mill, classifier speed 4000 rpm]", "D90", 21.7],
  ["CC[C@H]1[C@@H](O)[C@@H]2[C@H](CC[C@]3(C)[C@@H]([C@H](C)CCC(=O)O)CC[C@@H]23)[C@@]2(C)CC[C@@H](O)C[C@@H]12 [Jet mill, classifier speed 5000 rpm]", "D90", 18.9],
  ["CC[C@H]1[C@@H](O)[C@@H]2[C@H](CC[C@]3(C)[C@@H]([C@H](C)CCC(=O)O)CC[C@@H]23)[C@@]2(C)CC[C@@H](O)C[C@@H]12 [Jet mill, classifier speed 2000 rpm]", "D90", 69.3],
  ["CC[C@H]1[C@@H](O)[C@@H]2[C@H](CC[C@]3(C)[C@@H]([C@H](C)CCC(=O)O)CC[C@@H]23)[C@@]2(C)CC[C@@H](O)C[C@@H]12 [Comilled with 1.14 mm screen]", "D90", 412.0],
  ["CC[C@H]1[C@@H](O)[C@@H]2[C@H](CC[C@]3(C)[C@@H]([C@H](C)CCC(=O)O)CC[C@@H]23)[C@@]2(C)CC[C@@H](O)C[C@@H]12 [Comilled with 0.46 mm screen]", "D90", 335.1]
]}
